target: human CK2 catalytic subunit (CK2α) (Homo sapiens, UniProt P68400); test: Radiometric (P81 filter isotopic) kinase assay, CK2 catalytic subunit; assay type: biochemical; conditions: 10 µM compound; read-out: Residual Activity of the Enzyme CK2α
Sequence (P68400 whole entry): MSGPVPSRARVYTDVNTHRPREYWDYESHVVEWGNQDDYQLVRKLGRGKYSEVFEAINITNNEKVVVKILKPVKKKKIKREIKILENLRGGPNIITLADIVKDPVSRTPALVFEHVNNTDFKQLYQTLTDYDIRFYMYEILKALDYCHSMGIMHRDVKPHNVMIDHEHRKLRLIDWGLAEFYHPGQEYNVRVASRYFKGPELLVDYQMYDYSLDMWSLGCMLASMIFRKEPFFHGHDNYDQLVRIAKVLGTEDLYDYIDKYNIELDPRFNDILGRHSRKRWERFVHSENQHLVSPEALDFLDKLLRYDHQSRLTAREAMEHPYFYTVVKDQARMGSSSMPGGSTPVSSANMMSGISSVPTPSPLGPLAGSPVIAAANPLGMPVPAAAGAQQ
Reported values of remaining activity at 10 µM for individual entries
Report the figure in % without appending any unit label.

The cases that follow already have their remaining activity at 10 µM on record.
CCCCCC(=O)OCCCn1c(C)nc2c(Br)c(Br)c(Br)c(Br)c21: 74.3
CCCC(=O)OCCCn1cnc2c(Br)c(Br)c(Br)c(Br)c21: 59.1

Param item = Cc1nc2c(Br)c(Br)c(Br)c(Br)c2[nH]1 [Compound 4, reference compound] ; retrieve measured remaining activity at 10 µM. 7.7

Param item = CCCCCC(=O)OCCCn1cnc2c(Br)c(Br)c(Br)c(Br)c21 ; retrieve measured remaining activity at 10 µM. 83

Param item = O=C(O)c1ccc2c(c1)nc(Nc1cccc(Cl)c1)c1ccncc12 [CX-4945, silmitasertib, reference compound] ; retrieve measured remaining activity at 10 µM. 0
